Reference source: patent US20250313575A1

TARGET_ENTITY: GST-tagged truncated human mutant G2019S LRRK2 (Homo sapiens (Human), UniProt Q5S007, G2019S)
Sequence (Q5S007 970-2527 G2019S): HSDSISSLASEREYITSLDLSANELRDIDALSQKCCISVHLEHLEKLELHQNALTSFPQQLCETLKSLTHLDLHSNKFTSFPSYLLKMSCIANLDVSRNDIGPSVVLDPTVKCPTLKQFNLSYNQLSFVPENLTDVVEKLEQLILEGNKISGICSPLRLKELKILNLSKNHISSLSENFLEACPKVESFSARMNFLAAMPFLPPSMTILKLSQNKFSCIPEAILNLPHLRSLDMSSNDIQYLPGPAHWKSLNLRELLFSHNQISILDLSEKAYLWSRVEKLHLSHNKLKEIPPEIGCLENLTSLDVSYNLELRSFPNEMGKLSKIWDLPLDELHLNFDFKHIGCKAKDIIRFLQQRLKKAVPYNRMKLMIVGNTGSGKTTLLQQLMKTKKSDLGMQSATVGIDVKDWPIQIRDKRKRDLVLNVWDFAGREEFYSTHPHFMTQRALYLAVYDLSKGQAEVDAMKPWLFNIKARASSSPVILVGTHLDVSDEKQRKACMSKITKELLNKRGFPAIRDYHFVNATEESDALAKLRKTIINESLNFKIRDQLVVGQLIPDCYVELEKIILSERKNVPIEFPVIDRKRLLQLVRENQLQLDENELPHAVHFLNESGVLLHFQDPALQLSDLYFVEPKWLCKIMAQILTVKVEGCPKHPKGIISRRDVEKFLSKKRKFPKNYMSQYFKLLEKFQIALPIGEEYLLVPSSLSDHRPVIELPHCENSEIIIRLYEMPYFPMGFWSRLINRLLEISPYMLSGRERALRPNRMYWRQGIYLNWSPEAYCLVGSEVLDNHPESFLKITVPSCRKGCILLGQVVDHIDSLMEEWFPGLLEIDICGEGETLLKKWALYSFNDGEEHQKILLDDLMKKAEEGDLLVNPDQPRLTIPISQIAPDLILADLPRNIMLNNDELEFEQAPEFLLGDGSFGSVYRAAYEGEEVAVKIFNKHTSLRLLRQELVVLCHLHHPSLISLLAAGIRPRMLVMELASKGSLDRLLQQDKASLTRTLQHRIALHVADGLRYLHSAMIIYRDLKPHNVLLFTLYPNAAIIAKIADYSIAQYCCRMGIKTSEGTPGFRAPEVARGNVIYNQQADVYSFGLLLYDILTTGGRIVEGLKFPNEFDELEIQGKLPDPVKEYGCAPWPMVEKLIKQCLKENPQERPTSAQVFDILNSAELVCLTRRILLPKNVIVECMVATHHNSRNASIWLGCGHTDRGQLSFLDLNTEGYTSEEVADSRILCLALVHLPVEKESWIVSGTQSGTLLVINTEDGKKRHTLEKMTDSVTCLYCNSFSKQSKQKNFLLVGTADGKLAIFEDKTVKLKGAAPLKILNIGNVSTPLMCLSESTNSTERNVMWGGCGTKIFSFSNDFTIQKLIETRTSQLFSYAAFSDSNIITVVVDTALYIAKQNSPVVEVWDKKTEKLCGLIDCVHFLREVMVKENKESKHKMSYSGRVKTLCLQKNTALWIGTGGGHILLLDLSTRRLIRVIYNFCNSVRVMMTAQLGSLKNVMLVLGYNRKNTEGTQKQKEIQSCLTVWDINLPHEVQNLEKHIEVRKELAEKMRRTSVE
METHOD_SUMMARY: LRRK2 G2019S Km ATP LanthaScreen assay
Type: biochemical
PARTICULARS: G2019S LRRK2, 134 μM ATP (Km ATP), LRRKtide substrate
Listed next: entries and their corresponding LRRK2 pIC50.

- MOLECULE: "CC(C)c1n[nH]c2c1Nc1ncc(C(F)(F)F)c(n1)N[C@@H]1CC[C@H]1CO2 [Ex-1.22]"
  LRRK2 pIC50: ">10.09"
- MOLECULE: "Cc1nn(C(C)(C)C#N)c2c1Nc1ncc(C(F)(F)F)c(n1)N[C@@H]1CCC1CO2 (some centres unmarked) [Ex-1.1]"
  LRRK2 pIC50: ">10.09"
- MOLECULE: "Cc1cnc2nc1N[C@H](C)CCOc1c(c(C)nn1C(C)(C)CO)N2 [Ex-8.1]"
  LRRK2 pIC50: ">10.09"
- MOLECULE: "CCn1nc(C(F)(F)F)c2c1OC[C@@H]1COC[C@H]1Nc1nc(ncc1Cl)N2 [Ex-1.20]"
  LRRK2 pIC50: 9.42
- MOLECULE: "CC(C)c1nn(C(C)(C)CO)c2c1N(C)c1ncc(C(F)(F)F)c(n1)N[C@H](C)CCO2 [Ex-9.1]"
  LRRK2 pIC50: 6.11
- MOLECULE: "Cc1nn(C2CCC2)c2c1OCC1COCCC1Nc1nc(ncc1C(F)(F)F)N2 (centres unmarked) [Ex-2.35]"
  LRRK2 pIC50: 8.56
- MOLECULE: "Cn1nc(C(F)(F)F)c2c1OC[C@@H]1CC[C@H]1Nc1nc(ncc1Cl)N2 [Ex-1.19]"
  LRRK2 pIC50: 9.87

Below: the item to evaluate.
What does the data say about its LRRK2 pIC50? Entry: COC1CC(n2nc(C)c3c2Nc2ncc(C(F)(F)F)c(n2)N[C@@H]2CC[C@H]2CO3)C1 (some centres unmarked) [Ex-2.78] >10.09

###

TARGET_ENTITY: GST-tagged truncated human mutant G2019S LRRK2 (Homo sapiens (Human), UniProt Q5S007, G2019S)
METHOD_SUMMARY: LRRK2 G2019S Km ATP LanthaScreen assay
Assay type: biochemical
PARTICULARS: G2019S LRRK2, 134 μM ATP (Km ATP), LRRKtide substrate; read-out: LRRK2 pIC50 (converted)
Listed next: entries and their corresponding IC50.
Numbers only here, please. The scale is nM.

- COMPOUND: "Cc1nn(C2CCC2)c2c1OCC[C@@H]1COCCN1c1nc(ncc1C(F)(F)F)N2 (single isomer, unassigned) [Ex-21.3]"
  IC50 (nM): 22.9

What does the data say about its IC50? Entry: COC1CC(n2nc(C)c3c2Nc2ncc(C(F)(F)F)c(n2)NC2COCC2CO3)C1 (single isomer, unassigned) [Ex-2.32] 0.0912

What does the data say about its IC50? Entry: Cc1nn(C2CCC2)c2c1OCC[C@H]1COCCN1c1nc(ncc1C(F)(F)F)N2 (single isomer, unassigned) [Ex-21.4] 2450

What does the data say about its IC50? Entry: COC1CC(n2nc(C)c3c2Nc2ncc(C(F)(F)F)c(n2)NC2COCC2CO3)C1 (single isomer, unassigned) [Ex-2.31] 288

What does the data say about its IC50? Entry: Cc1nn(C)c2c1CCC[C@@H](C)Nc1nc(ncc1C(F)(F)F)N2 (single isomer, unassigned) [Ex-11.2] 3.16

What does the data say about its IC50? Entry: Cc1nn2c(c1C)Nc1ncc(C(F)(F)F)c(n1)N[C@@H](C)CCC2 (single isomer, unassigned) [Ex-16.2] 0.631

What does the data say about its IC50? Entry: Cc1nn(C2CCC2)c2c1CC[C@@H]1COC[C@H]1Nc1nc(ncc1C(F)(F)F)N2 (single isomer, unassigned) [Ex-12.2] 0.24

What does the data say about its IC50? Entry: Cc1nn(C)c2c1OC[C@H]1COC[C@H]1Nc1nc(ncc1C(F)(F)F)N2 (single isomer, unassigned) [Ex-2.25] 28.2
